System: tobacco budworm (Heliothis virescens [Fabricius])
measurement.description: Diet test: test chemical incorporated into artificial diet of tobacco budworm larvae, 5-day exposure
Assay type: in vivo
test.parameters: Heliothis virescens, feed or water, 120 h, read-out: Percent Mortality
test.readout: mortality at 100 µM
Dear colleague, please send the value followed by its unit.

INSERT INTO results (compound, test_readout, value) VALUES
  ('[O-][N+]1(Cc2ccc(-c3ccccn3)cc2)CCC(C(O)(c2ccc(C(F)(F)F)cc2)c2ccc(C(F)(F)F)cc2)CC1 (stereo not shown) [Compound 44]', 'mortality at 100 µM', '100%'),
  ('[O-][N+]1(Cc2ccc(-c3ncccn3)cc2)CCC(C(O)(c2ccc(C(F)(F)F)cc2)c2ccc(C(F)(F)F)cc2)CC1 (stereo not shown) [Compound 101]', 'mortality at 100 µM', '100%'),
  ('Cn1nnc(-c2ccc(C[N+]3([O-])CCC(C(O)(c4ccc(C(F)(F)F)cc4)c4ccc(C(F)(F)F)cc4)CC3)cc2)n1 (stereo not shown) [Compound 32]', 'mortality at 100 µM', '100%'),
  ('[O-][N+]1(Cc2ccc(Oc3nsnc3Cl)cc2)CCC(C(O)(c2ccc(C(F)(F)F)cc2)c2ccc(C(F)(F)F)cc2)CC1 (stereo not shown) [Compound 30]', 'mortality at 100 µM', '40%');

Batch of 8 compounds: report mortality at 100 µM for each.
1. [O-][N+]1(Cc2ccc(Oc3ccc(C(F)(F)F)cn3)cc2)CCC(C(O)(c2ccc(C(F)(F)F)cc2)c2ccc(C(F)(F)F)cc2)CC1 (stereo not shown) [Compound 71]
2. CC(=O)Nc1ccc(CN2CCC(C(O)(c3ccc(OC(F)(F)F)cc3)c3ccc(OC(F)(F)F)cc3)CC2)cc1 [Compound 3]
3. N#Cc1ccc(Oc2ccc(CN3CCC(C(O)(c4ccc(C(F)(F)F)cc4)c4ccc(C(F)(F)F)cc4)CC3)cc2)nc1 [Compound 72]
4. [O-][N+]1(Cc2ccc(-c3nnn(CCF)n3)cc2)CCC(C(O)(c2ccc(C(F)(F)F)cc2)c2ccc(C(F)(F)F)cc2)CC1 (stereo not shown) [Compound 99]
5. [O-][N+]1(Cc2ccc(-c3nnn(C(F)F)n3)cc2)CCC(C(O)(c2ccc(C(F)(F)F)cc2)c2ccc(C(F)(F)F)cc2)CC1 (stereo not shown) [Compound 39]
6. [O-][n+]1ccc(C(F)(F)F)cc1Oc1ccc(CN2CCC(C(O)(c3ccc(C(F)(F)F)cc3)c3ccc(C(F)(F)F)cc3)CC2)cc1 [Compound 65]
7. Cc1ccc[n+]([O-])c1Oc1ccc(CN2CCC(C(O)(c3ccc(C(F)(F)F)cc3)c3ccc(C(F)(F)F)cc3)CC2)cc1 [Compound 59]
8. Cc1cccnc1Oc1ccc(C[N+]2([O-])CCC(C(O)(c3ccc(C(F)(F)F)cc3)c3ccc(C(F)(F)F)cc3)CC2)cc1 (stereo not shown) [Compound 58]

-- reply
1: 100%; 2: 0%; 3: 100%; 4: 100%; 5: 100%; 6: 25%; 7: 100%; 8: 100%

Batch of 4 compounds: report mortality at 100 µM for each.
1. CC(C)c1cnc(-c2ccc(CN3CCC(C(O)(c4ccc(C(F)(F)F)cc4)c4ccc(C(F)(F)F)cc4)CC3)cc2)o1 [Compound 19]
2. CCn1nnc(-c2ccc(C[N+]3([O-])CCC(C(O)(c4ccc(C(F)(F)F)cc4)c4ccc(C(F)(F)F)cc4)CC3)cc2)n1 (stereo not shown) [Compound 34]
3. Cc1ccc(Oc2ccc(CN3CCC(C(O)(c4ccc(C(F)(F)F)cc4)c4ccc(C(F)(F)F)cc4)CC3)cc2)nc1 [Compound 68]
4. COc1ccc(CCN2CCC(C(O)(c3ccc(OC(F)(F)F)cc3)c3ccc(OC(F)(F)F)cc3)CC2)cc1 [Compound 2]

-- reply
1. 90%
2. 100%
3. 90%
4. 25%

Batch of 6 compounds: report mortality at 100 µM for each.
1. COCn1nnc(-c2ccc(CN3CCC(C(O)(c4ccc(C(F)(F)F)cc4)c4ccc(C(F)(F)F)cc4)CC3)cc2)n1 [Compound 41]
2. Cc1cccc(Oc2ccc(CN3CCC(C(O)(c4ccc(C(F)(F)F)cc4)c4ccc(C(F)(F)F)cc4)CC3)cc2)n1 [Compound 75]
3. CC(C)(C)n1nnc(-c2ccc(CN3CCC(C(O)(c4ccc(C(F)(F)F)cc4)c4ccc(C(F)(F)F)cc4)CC3)cc2)n1 [Compound 37]
4. Cn1cnc(-c2ccc(C[N+]3([O-])CCC(C(O)(c4ccc(C(F)(F)F)cc4)c4ccc(C(F)(F)F)cc4)CC3)cc2)n1 (stereo not shown) [Compound 28]
5. [O-][n+]1ccccc1-c1ccc(CN2CCC(C(O)(c3ccc(C(F)(F)F)cc3)c3ccc(C(F)(F)F)cc3)CC2)cc1 [Compound 45]
6. Cc1cccc(Oc2ccc(C[N+]3([O-])CCC(C(O)(c4ccc(C(F)(F)F)cc4)c4ccc(C(F)(F)F)cc4)CC3)cc2)[n+]1[O-] (stereo not shown) [Compound 77]

-- reply
1: 100%; 2: 100%; 3: 100%; 4: 100%; 5: 100%; 6: 60%

Data origin, for the record: patent EP0844825B1
